Biological target: PTP1B (Homo sapiens, UniProt P18031)
Construct: purchased Sigma-Aldrich
Sequence (P18031 whole entry): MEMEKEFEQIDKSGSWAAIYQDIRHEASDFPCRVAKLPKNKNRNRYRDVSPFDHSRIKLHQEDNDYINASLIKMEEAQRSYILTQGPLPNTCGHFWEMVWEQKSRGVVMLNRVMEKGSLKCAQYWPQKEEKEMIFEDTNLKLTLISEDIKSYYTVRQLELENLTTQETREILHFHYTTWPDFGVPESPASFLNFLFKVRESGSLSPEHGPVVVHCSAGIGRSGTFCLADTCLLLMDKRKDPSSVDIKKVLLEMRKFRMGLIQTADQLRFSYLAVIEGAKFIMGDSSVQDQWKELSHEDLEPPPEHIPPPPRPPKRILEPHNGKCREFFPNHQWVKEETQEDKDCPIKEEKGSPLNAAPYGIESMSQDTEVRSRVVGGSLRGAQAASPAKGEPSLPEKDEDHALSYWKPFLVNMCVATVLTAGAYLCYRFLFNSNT
Assay: Inhibition of human recombinant tyrosine phosphatase PTP1B (DiFMUP fluorescence)
Assay type: biochemical
Conditions: read-out: IC50 for PTP1B
Description: To determine the ability of the tested compounds for inhibition tyrosine phosphatases, human recombinant proteins were used (Sigma-Aldrich). The reactions were performed in black opaque 384-well microplates (PerkinElmer, Waltham, MA, USA). […] Samples were incubated for 20 miN at 23 °C, and then the measurements of fluorescence intensity (excitation 355 and emission […]) were performed on a multifunctional plate reader POLARstar Omega (BMG Labtech, Ortenberg, Germany). […]
pIC50: −log10 of the molar value.
property-measured: pIC50

INSERT INTO results (compound, property_measured, observed_measurement) VALUES
  ('CC(CC(=S)Nc1ccccc1)=NC(Cc1ccccc1)C(=O)[O][V](=[O])([Cl])[Cl] (centres unmarked) [VC059, [VOCl2(L2)]·0.5Et2O·1.5HCl]', 'pIC50', 6.96),
  ('CC(CC(=S)Nc1ccccc1)=NC(Cc1c[nH]c2ccccc12)C(=O)[O][V](=[O])([Cl])[Cl] (centres unmarked) [VC054, [VOCl2(L1)]·1.5Et2O ·6.5HCl]', 'pIC50', 6.85);
